ASSAY METHOD TEXT: Stat Signaling Pathway (AID 446);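 note: ME-180 cervical cancer cells given 40 pM IL-6 alongside compound; SIE-controlled beta-lactamase reporter measured as 460/530 nm FRET emission ratio; % is set by controls: 0 for no effect and ±100 for the full control effect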
CONDITION NOTES: ME-180 (cervical carcinoma) SIE beta-lactamase reporter, IL-6 stimulated, 5 h; at 7.69 µM (top of the series) unless noted
Records with an inconclusive call do not appear. The source made the active and inactive calls. Calls come from the whole dose curve; as a rule, active = well fitted curve in either direction with a large enough effect (not every such curve was filed as active); inconclusive = small, poorly fitted or top-dose-only effect, or another doubt; inactive = flat fitted curve, though single readings scatter.
MEASURE NAME: activity, negative = inhibition

1) CC(C)NC(=O)N1CC2(CCN(S(=O)(=O)c3ccccc3)CC2)C1
-0.15% (inactive)
2) c1csc(CNc2ncncc2-c2ccc3c(c2)OCO3)c1
6.16% (inactive)
3) CC(C)NC(=O)N1CCC2(CC1)CCN(C(=O)c1csnn1)CC2
-6.49% (inactive)

Inquiry: # lookup: activity, negative = inhibition of Cc1cnc(CNc2cc(-c3cccc(NS(C)(=O)=O)c3)ncn2)cn1
Reply text: -0.385% (inactive)

Inquiry: Sample COCCn1c(=O)c(-c2ccccc2)nc2cnc(OC)nc21 — what was its activity, negative = inhibition?
Reply text: -12.2% (inactive)

Inquiry: Sample COCCn1c(=O)c(C)nc2cnc(N3CCN(C)CC3)nc21 — what was its activity, negative = inhibition?
Reply text: -3.76% (inactive)

====

MEASURED ON: Glucocorticoid receptor (Homo sapiens)
ASSAY METHOD TEXT: GR-GFP Redistribution (AID 450); note: potency is the fitted concentration of half-maximal effect
CONDITION NOTES: U2OS GR-GFP nuclear translocation, laser cytometry, 2 h
Activity calls are given as the source filed them.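 Rule for the calls: active = compounds whose dose series gives a full or clear partial fitted curve of increased nuclear translocation; inconclusive = weak partial curve or effect only at the top dose; inactive = no dose-dependent translocation response.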
The following compounds are listed with their measured Potency values.

Recorded results for 3 compounds are shown here.
1) COc1ncc2nc(-c3ccccc3)c(=O)n(-c3ccccc3)c2n1
> 9.22 µM (inactive)
2) c1nc(N2CCNCC2)c2cc(-c3ccc4c(c3)OCO4)ccc2n1
> 46 µM (inactive)
3) COc1cccc(Nc2ncc3nc(C)c(=O)n(C4CC4)c3n2)c1
> 9.22 µM (inactive)

Inquiry: Fill in the blank: the reported Potency of COCCNc1nc(-c2ccccc2Cl)nc2ccccc12 is ____.
Reply text: > 46 µM (inactive)

Inquiry: Form field: reported Potency of CN(C)Cc1ccccc1-c1nc(N2CCOCC2)c2ccccc2n1
Reply text: > 46 µM (inactive)

Inquiry: For the compound shown here, CN(C)c1ncc2ncc(=O)n(CCC#N)c2n1 , give the reported Potency.
Reply text: > 9.22 µM (inactive)

Inquiry: Quick one: Potency for COCCn1c(=O)cnc2cnc(Nc3ccccc3)nc21 ?
Reply text: > 9.22 µM (inactive)

Inquiry: Could you tell me which Potency is on file for O=c1c(-c2cccs2)nc2cnc(N3CCNCC3)nc2n1-c1ccccc1 ?
Reply text: > 9.22 µM (inactive)

Inquiry: // returns reported Potency for input Cn1c(=O)c(-c2cccs2)nc2cnc(OCc3ccccc3)nc21
Reply text: > 9.22 µM (inactive)

Inquiry: Quick one: Potency of COCCNc1nc(-c2ccccc2CN(C)C)nc2ccccc12 ?
Reply text: > 46 µM (inactive)

Inquiry: Which Potency value belongs to COc1ccc(-n2c(=O)cnc3cnc(N4CCOCC4)nc32)cc1 ?
Reply text: > 9.22 µM (inactive)

====

MEASURED ON: Phospholipid hydroperoxide glutathione peroxidase GPX4 (Homo sapiens) (UniProt P36969)
Sequence (P36969 whole entry, looked up): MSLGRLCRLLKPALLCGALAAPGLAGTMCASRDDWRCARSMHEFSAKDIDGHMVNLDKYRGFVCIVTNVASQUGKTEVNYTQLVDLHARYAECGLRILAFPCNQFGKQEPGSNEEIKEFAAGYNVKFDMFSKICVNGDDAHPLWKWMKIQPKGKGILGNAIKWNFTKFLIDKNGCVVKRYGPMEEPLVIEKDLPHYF
ASSAY METHOD TEXT: Primary qHTS Assay for Inhibitors of Recombinant Selenoprotein Glutathione Peroxidase 4 (GPX4) (AID 1845192); note: nearly all actives have a fitted effect of over 65% in size
CONDITION NOTES: recombinant GPX4, GR-coupled NADPH fluorescence, 15 min; series mostly up to 50 µM
Results filed as inconclusive are left out. Activity calls are given as the source filed them. Calls follow the shape of the dose curve; as a rule, active = well fitted inhibition curve with a large enough effect; inconclusive = small, poorly fitted or top-dose-only effect; inactive = flat fitted curve, though single readings scatter.
Return exactly one item of true (1) for active, false (0) for inactive

1) COc1ccc(N2C(=O)N(c3c(C)cccc3Cl)Cc3cnc(Nc4ccc(C5CCN(C)CC5)cc4OC)nc32)nc1
false (0)
2) C[C@H](NC(=O)CCC(F)(F)F)C(=O)N[C@@H]1C(=O)N(CCO)c2ncccc2-c2ccccc21
false (0)
3) COc1nc(OCc2cccc(-c3ccccc3)c2C)ccc1CNCCNC(C)=O
false (0)
4) CO[C@@H]1[C@@H](O)[C@H](O)[C@@H](n2c3c(Cl)cccc3c3c4c(c5c6cccc(Cl)c6[nH]c5c32)C(=O)NC4=O)O[C@H]1CO
false (0)
5) COc1cc2nccc(Oc3ccc(NC(=O)c4cn(C(C)C)c(=O)n(-c5ccc(F)cc5)c4=O)cc3F)c2cc1OC
false (0)
6) C=CC(=O)Nc1cc(N2CCN(CC)CC2)ccc1Nc1cc(N(C)C(=O)Nc2c(Cl)c(OC)cc(OC)c2Cl)ncn1
false (0)
7) CC(C)n1ncnc1-c1cn2c(n1)-c1ccc(O[C@@H](C)C(N)=O)cc1OCC2
false (0)
8) O=C(Nc1cccc(C(F)(F)F)c1)c1cccc2cc(Oc3cc(CO)ncn3)ccc12
false (0)
9) CC(=O)[C@]1(N)Cc2c(O)c3c(c(O)c2[C@@H](O[C@H]2C[C@H](O)[C@H](O)CO2)C1)C(=O)c1ccccc1C3=O
false (0)
10) COc1cc2c(Oc3ccc4[nH]c(C)cc4c3F)ccnc2cc1OCC1(N)CC1
false (0)

Inquiry: Call for entry C[C@@H]1CC(=O)Nc2cccc(-c3cnn(C(C)(C)C)c3)c2N1 :
Reply text: false (0)

Inquiry: Fill in: this test's call for O=C1Cc2cc(C(=O)NC3C[C@H]4CC[C@@H](C3)N4S(=O)(=O)CC3CCN(CCCC(F)(F)F)CC3)c(Cl)cc2N1 (some centres not stated) is ___
Reply text: false (0)

Inquiry: Assay outcome for COc1ccc(S(=O)(=O)N[C@@H](CNc2nc(C)nc(N3CCC(c4ccc5c(n4)NCCC5)CC3)c2C)C(=O)O)cc1 : what was it?
Reply text: false (0)
